# credit: a melting point compilation (Tetko et al.; mined from patent text by program, amines drawn as free bases though some values may be those of a salt)

Some compounds, each annotated with its measured melting point.

// solved cases for melting point follow
- compound: "N#CCC(=O)NCc1ccccn1"
  observed property: "melting point"
  measured value: "82 to 83 °C"
- compound: "CC(C)(C)OC(=O)N1CCN(c2c(F)cc(N3CC(CN=[N+]=[N-])OC3=O)cc2F)CC1 (centres undefined)"
  observed property: "melting point"
  measured value: "115 to 117 °C"
- compound: "Cc1cc2c(-c3ccccc3)c(CO)n(C)c(=O)c2cc1C"
  observed property: "melting point"
  measured value: "209 to 210 °C"

Problem: Provide melting point value for the following compound: COC(=O)CCCC#Cc1cc(Cl)ccc1NS(=O)(=O)c1ccc2c(c1)C(C)(C)CCC2(C)C
Result: 113 to 115 °C

Problem: Provide melting point value for the following compound: Cc1nc2cccc3n(CCCCNS(=O)(=O)CC(F)(F)F)c(=O)c1n23
Result: 116 to 118 °C
